Origin of measurements: patent EP0335331A1

# experiment.notes: acute toxicity by the Weil method
# conditions.used: in vivo, mouse, read-out: LD₅₀
experimental.endpoint: LD50

Indicate the recorded LD50 value for this compound: CC(=O)OCC(COP(=O)(O)OCCN)OC(C)=O (stereo not shown)
> 2000 mg/kg
